The values you see were collected from patent US20260116991A1.

Target: T1, monkey GPC3-His protein (monkey)
T1 construct: Bought recombinant protein; also called monkey GPC3 protein
Experiment: ELISA, monkey GPC3-His coated;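 further: Plate-coated antigen at 1 µg/mL, antibody binding 2 h at 37 °C, detected with HRP-labeled secondary antibody and TMB, absorbance at 450 nm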
recorded_metric: OD450 at 1 nM
Give the value; after it, write the unit.

Reference set, count: 2
>  <binder>
F1.145.22 (antibody, human IgG1, kappa, V domains shown, Human-murine chimeric antibody) VH: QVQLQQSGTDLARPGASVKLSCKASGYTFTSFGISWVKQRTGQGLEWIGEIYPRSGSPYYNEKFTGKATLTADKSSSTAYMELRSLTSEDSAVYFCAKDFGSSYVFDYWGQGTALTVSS VL: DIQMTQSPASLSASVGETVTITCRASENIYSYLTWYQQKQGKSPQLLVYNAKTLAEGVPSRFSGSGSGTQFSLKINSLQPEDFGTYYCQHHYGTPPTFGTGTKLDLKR

>  <recorded_metric>
OD450 at 1 nM

>  <endpoint_value>
2.17 OD450

$$$$
>  <binder>
F1.2.14 (antibody, human IgG1, kappa, V domains shown, Human-murine chimeric antibody) VH: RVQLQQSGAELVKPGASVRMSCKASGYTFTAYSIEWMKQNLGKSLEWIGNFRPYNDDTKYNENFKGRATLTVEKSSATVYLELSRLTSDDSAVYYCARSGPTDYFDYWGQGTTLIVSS VL: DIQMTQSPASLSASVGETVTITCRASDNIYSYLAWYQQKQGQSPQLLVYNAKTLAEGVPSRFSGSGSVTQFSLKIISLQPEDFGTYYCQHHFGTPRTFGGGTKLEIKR

>  <recorded_metric>
OD450 at 1 nM

>  <endpoint_value>
0.86 OD450

$$$$

API: the following record is the query input.
Per the record, F2.154.1 (antibody, human IgG1, kappa, V domains shown, Human-murine chimeric antibody) VH: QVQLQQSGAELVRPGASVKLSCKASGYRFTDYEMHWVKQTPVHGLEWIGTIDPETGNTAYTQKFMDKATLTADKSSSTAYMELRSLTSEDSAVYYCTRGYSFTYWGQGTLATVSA VL: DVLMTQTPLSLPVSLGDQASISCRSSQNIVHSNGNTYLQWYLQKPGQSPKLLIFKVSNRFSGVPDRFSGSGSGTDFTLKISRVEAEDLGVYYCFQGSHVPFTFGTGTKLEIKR has OD450 at 1 nM of 2.38 OD450
